Entry source: patent US20090149455A1

- Test Description: log p
- Type: physicochemical
Assignment: determine reported log p for the given compounds.
Keep the answer to the number alone.

Ask: Which log p value belongs to CC(Nc1c(-c2c(Cl)cc(OC(F)(F)F)cc2Cl)c(Br)nc2ncnn12)C(F)(F)F (centres unmarked) ?
Reply: 3.92

Ask: Which log p value belongs to CC(C)CC(C)Nc1c(-c2ccc(F)cc2F)c(Cl)nc2ncnn12 (centres unmarked) ?
Reply: 3.53

Ask: Which log p value belongs to CC1CCN(c2c(-c3ccc(F)cc3Cl)c(Cl)nc3ncnn23)NC1 (centres unmarked) ?
Reply: 3.22

Ask: Which log p value belongs to CC(C)CNc1c(-c2ccccc2)c(Cl)nc2ncnn12 ?
Reply: 2.79

Ask: Which log p value belongs to CC1C=NN(c2c(-c3ccccc3Cl)c(Cl)nc3ncnn23)CC1C (centres unmarked) ?
Reply: 3.1

Ask: Which log p value belongs to CC1(C)CCN(c2c(-c3ccc(F)cc3F)c(Cl)nc3ncnn23)CC1 ?
Reply: 3.8

Ask: Which log p value belongs to CCCCNc1c(-c2ccc(F)cc2F)c(Cl)nc2ncnn12 ?
Reply: 2.9

Ask: Which log p value belongs to CC(Nc1c(-c2c(F)cc(F)cc2F)c(Cl)nc2ncnn12)C(C)(C)C (centres unmarked) [Example 2] ?
Reply: 3.54

Ask: Which log p value belongs to CC1C=NN(c2c(-c3c(F)cc(F)cc3F)c(Cl)nc3ncnn23)CC1C (centres unmarked) ?
Reply: 3.14

Ask: Which log p value belongs to CC(C)C(C)Nc1c(-c2c(F)cc(F)cc2F)c(Cl)nc2ncnn12 (centres unmarked) [Example 3] ?
Reply: 3.2

Ask: Which log p value belongs to Fc1ccc(-c2c(Cl)nc3ncnn3c2N2CCCCO2)c(F)c1 ?
Reply: 2.84

----------
- Test Description: log p
- Assay type: physicochemical
Measured Property: log p
Keep the answer to the number alone.

Ask: Which log p value belongs to C=C(C)CNc1c(-c2c(F)cc(F)cc2F)c(Cl)nc2ncnn12 [Example 94] ?
Reply: 2.63

Ask: Which log p value belongs to C[C@H](Nc1c(-c2c(F)cccc2Cl)c(Cl)nc2ncnn12)C(C)(C)C [Example 71] ?
Reply: 3.63

Ask: Which log p value belongs to C[C@@H](Nc1c(-c2cc(F)ccc2F)c(Cl)nc2ncnn12)C(C)(C)C [Example 72] ?
Reply: 3.38

Ask: Which log p value belongs to CC1C=NN(c2c(-c3c(F)cccc3Cl)c(Cl)nc3ncnn23)CC1C (stereo not shown) [Example 275] ?
Reply: 3.15

Ask: Which log p value belongs to C=C(C)CNc1c(-c2ccccc2F)c(Cl)nc2ncnn12 [Example 91] ?
Reply: 2.48

Ask: Which log p value belongs to C[C@H](Nc1c(-c2ccc(F)cc2F)c(Cl)nc2ncnn12)C(F)(F)F [Example 52] ?
Reply: 2.81

Ask: Which log p value belongs to CCC(C)Nc1c(-c2c(F)cccc2F)c(Cl)nc2ncnn12 (stereo not shown) [Example 5] ?
Reply: 2.71

Ask: Which log p value belongs to CN(C)c1c(-c2ccccc2F)c(Cl)nc2ncnn12 [Example 85] ?
Reply: 2.18

Ask: Which log p value belongs to C=C(C)CNc1c(-c2ccc(F)cc2F)c(Cl)nc2ncnn12 [Example 97] ?
Reply: 2.6

Ask: Which log p value belongs to CC1CCN(c2c(-c3ccccc3)c(Cl)nc3ncnn23)CC1 [Example 253] ?
Reply: 3.47

Ask: Which log p value belongs to CC(Nc1c(-c2c(F)cccc2Cl)c(Cl)nc2ncnn12)C(F)(F)F (stereo not shown) [Example 30] ?
Reply: 2.85

Ask: Which log p value belongs to CC1C=NN(c2c(-c3ccccc3Cl)c(Cl)nc3ncnn23)CC1 (stereo not shown) [Example 272] ?
Reply: 2.79

Ask: Which log p value belongs to CC(Nc1c(-c2c(F)cc(F)cc2F)c(Cl)nc2ncnn12)C(C)(C)C (stereo not shown) [Example 67] ?
Reply: 3.53

Ask: Which log p value belongs to CC(C)(C)Nc1c(-c2c(F)cc(C(F)(F)F)cc2Cl)c(Cl)nc2ncnn12 [Example 153] ?
Reply: 3.9

Ask: Which log p value belongs to C[C@H](Nc1c(-c2cc(C(F)(F)F)ccc2Cl)c(Cl)nc2ncnn12)C(F)(F)F [Example 40] ?
Reply: 3.4

Ask: Which log p value belongs to C=C(C)CNc1c(-c2c(F)c(F)c(F)c(F)c2F)c(Cl)nc2ncnn12 [Example 104] ?
Reply: 3.09
